- tested.on: HBV core protein (UniProt P03146)
- Sequence (P03146 whole entry, looked up): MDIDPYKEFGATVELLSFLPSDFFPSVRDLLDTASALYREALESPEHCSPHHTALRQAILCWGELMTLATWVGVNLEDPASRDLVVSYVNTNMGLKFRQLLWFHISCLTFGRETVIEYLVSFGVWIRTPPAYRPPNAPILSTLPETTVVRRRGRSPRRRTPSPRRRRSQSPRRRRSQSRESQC
- Type: biochemical
- conditions.used: read-out: Assembly Activity (IC50); BODIPY-FL labelled core protein, assembly started with NaCl, read after 6 min
- Procedure: Biochemical Capsid Assembly Assay The screening for assembly effector activity was done based on a fluorescence quenching assay published by Zlotnick et al. (2007). […] Immediately before labelling the core protein was reduced by adding freshly prepared DTT in a final concentration of 20 mM. […] In the dimeric state the fluorescence signal of the labelled core protein is high and is quenched during the assembly of the core dimers to high molecular capsid structures. […]
pIC50: −log10 of the molar value.
measurement.label: pIC50

Use these answered entries as a reference point.
molecule	tested.on	recorded.result
O=C(c1cc2c(F)ccc(F)c2[nH]1)N1CCc2nc(NCC3CCOC3)sc2C1 (stereo not drawn) [Example 122]	HBV core protein (UniProt P03146)	> 5.30
O=C(c1cc2ccc(Br)cc2[nH]1)N1CCc2nc(NCC3CCOC3)sc2C1 (stereo not drawn) [Example 113]	HBV core protein (UniProt P03146)	> 5.30
Nc1nc2c(s1)CN(C(=O)c1cc3c(C(F)F)cccc3[nH]1)CC2 [Example 293]	HBV core protein (UniProt P03146)	> 5.30
O=C(c1cc2ccccc2[nH]1)N1CCc2nc(-c3ncccn3)sc2C1 [Example 202]	HBV core protein (UniProt P03146)	5.00 to 5.30
O=C(c1cc2ccccc2[nH]1)N1CCc2nc(CNC3CC3)sc2C1 [Example 38]	HBV core protein (UniProt P03146)	> 5.30
Cc1nc2c(s1)CN(C(=O)c1cc3c(F)c(F)ccc3[nH]1)CC2 [Example 193]	HBV core protein (UniProt P03146)	> 5.30
Nc1nc2c(s1)CN(C(=O)c1cc3ccc(Cl)c(Cl)c3[nH]1)CC2 [Example 148]	HBV core protein (UniProt P03146)	> 5.30
COc1cccc2cc(C(=O)N3CCc4nc(N)sc4C3)[nH]c12 [Example 153]	HBV core protein (UniProt P03146)	> 4.00

Consider the record given below.
Prompt: Please give the measured pIC50 for this molecule: O=C(c1cc2ccccc2[nH]1)N1CCc2nc(OCc3ccccc3)sc2C1 [Example 158]
Completion: > 4.00
